Each record here notes measured ELISA signal, free CD3e 0 pmol/well.
biological target: T1, biotin-labeled human CD137 fused to human IgG1 Fc fragment (human, biotin-labeled); assay: bead ELISA, IgG on biotin-human CD137-Fc on streptavidin beads, no free CD3e
T1 construct: Immobilised on streptavidin beads through biotin; also called human CD137-Fc; biotin-human CD137-Fc
T1 sequence (chain, as listed by the source limits assumed): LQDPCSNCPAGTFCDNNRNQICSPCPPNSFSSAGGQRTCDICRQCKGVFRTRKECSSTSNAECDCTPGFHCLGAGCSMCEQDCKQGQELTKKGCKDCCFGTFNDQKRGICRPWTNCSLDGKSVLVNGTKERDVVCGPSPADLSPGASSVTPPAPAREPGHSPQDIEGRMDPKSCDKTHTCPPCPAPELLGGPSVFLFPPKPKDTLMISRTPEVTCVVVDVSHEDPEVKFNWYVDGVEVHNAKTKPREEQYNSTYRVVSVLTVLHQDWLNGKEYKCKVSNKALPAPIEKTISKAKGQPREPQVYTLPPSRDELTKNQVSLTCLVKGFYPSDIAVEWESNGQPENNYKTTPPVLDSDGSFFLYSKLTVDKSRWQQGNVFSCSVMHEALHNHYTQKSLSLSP
Lab note: jot down the number only; don't add units.

Below are worked cases with known answers.
dBBDu173 (antibody, human IgG1, V domains shown, IgG: VH joined to human IgG1 CH1-Fc, GLS3000 as light chain) VH: QVQLVESGGGLVQPGRSLRLSCAASGFTFSNAWMHWVRQAPGKGLEWVAQIKDKGNLYAAYYAPSVKGRFTISRDDSKNSIYLQMNSLKTEDTAVYYCHYVHYASAGGGLSAYGVDAWGQGTTVTVSS VL: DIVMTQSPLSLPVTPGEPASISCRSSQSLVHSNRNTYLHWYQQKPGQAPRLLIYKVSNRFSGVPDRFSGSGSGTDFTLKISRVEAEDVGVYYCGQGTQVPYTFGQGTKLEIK :: 6540
dBBDu193 (antibody, human IgG1, V domains shown, IgG: VH joined to human IgG1 CH1-Fc, GLS3000 as light chain) VH: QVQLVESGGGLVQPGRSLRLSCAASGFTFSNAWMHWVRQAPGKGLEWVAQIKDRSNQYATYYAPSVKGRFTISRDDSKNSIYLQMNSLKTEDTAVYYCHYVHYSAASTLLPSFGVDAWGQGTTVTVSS VL: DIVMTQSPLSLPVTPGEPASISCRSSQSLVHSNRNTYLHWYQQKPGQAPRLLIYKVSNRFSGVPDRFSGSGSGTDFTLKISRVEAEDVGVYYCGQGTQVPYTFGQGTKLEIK :: 18200

Then this binder:
Data request: If you can, please state the reported ELISA signal, free CD3e 0 pmol/well value of anti-human CD137 antibody described in WO2005/035584A1 (abbreviated as B) (antibody, V domains shown, also called control anti-CD137 antibody) VH: QVQLQQWGAGLLKPSETLSLTCAVYGGSFSGYYWSWIRQSPEKGLEWIGEINHGGYVTYNPSLESRVTISVDTSKNQFSLKLSSVTAADTAVYYCARDYGPGNYDWYFDLWGRGTLVTVSS VL: EIVLTQSPATLSLSPGERATLSCRASQSVSSYLAWYQQKPGQAPRLLIYDASNRATGIPARFSGSGSGTDFTLTISSLEPEDFAVYYCQQRSNWPPALTFGGGTKVEIK .
Data returned: 99400
